The reported measurements were obtained from the supplement of paper PMC10567573.

B1: ESRRG (parent)
chain: YSCPATNECEITKRRRKSCQACRF

- Variants of: B1
- protocol-description: protein stability index of a GFP-peptide fusion (GPS, HEK-293T) (PSI 1-6); higher = more stable;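 further: lentivirally expressed fusions sorted by FACS into six bins by GFP to DsRed ratio, PSI derived from sequencing read proportions per bin multiplied by bin number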
- measurement-context: c terminus: a fixed tail appended
Please provide measured protein stability index for the entries that follow.
One number for each entry.

Give protein stability index for all variants that follow.
1. R15T
2. C3Q
3. T6C
4. F24C
5. E10D
6. K17Q

3.22
3.62
3.76
3.62
3.34
3.29
